The measured values listed here are drawn from patent US10173982B2.

- Test system: Puccinia triticina
- test summary: Fungicidal activity: wheat brown rust (PUCCRT), percent disease control on wheat seedlings
- Assay type: in vivo
- condition label: Puccinia triticina, 24 h, LV (low volume) activity at 121.5 g/H, 1 Day Protectant, read-out: PUCCRT 1DP disease control rating
experimental endpoint: pest or weed control at 121.5 g/ha

Completed entries (count: 2):
* COc1ccnc(C(=O)N[C@@H](C)C(=O)O[C@@H](C)[C@H](Sc2ccccc2)c2ccccc2)c1OCOC(C)=O | > 80%
* COc1ccnc(C(=O)N[C@@H](C)C(=O)O[C@@H](C)[C@H](Sc2ccc(C(F)(F)F)cn2)c2ccccc2)c1OC(C)=O | ≤ 0%

Batch request: pest or weed control at 121.5 g/ha per item, same order as input.
1. COc1ccnc(C(=O)N[C@@H](C)C(=O)O[C@@H](C)[C@H](Sc2cccc(Cl)c2)c2ccccc2)c1OC(C)=O
2. COc1ccnc(C(=O)N[C@@H](C)C(=O)O[C@@H](C)[C@@H](c2ccccc2)[S+]([O-])c2ccc(C)cc2C)c1OC(C)=O (stereo partly shown)
3. COc1ccnc(C(=O)N[C@@H](C)C(=O)O[C@@H](C)[C@H](Sc2ccc(C)cc2C)c2ccccc2)c1OC(C)=O
4. COc1ccnc(C(=O)N[C@@H](C)C(=O)O[C@@H](C)[C@H](Sc2ccc(F)cc2C)c2ccc(F)cc2C)c1OC(C)=O
5. COc1ccnc(C(=O)N[C@@H](C)C(=O)O[C@@H](C)[C@H](Sc2ccccc2)c2ccc(C)cc2)c1OC(C)=O

[out]
1: > 80%; 2: ≤ 0%; 3: > 80%; 4: ≤ 80%; 5: > 80%
